- study system: α1A Human Adrenergic Receptor (Homo sapiens, UniProt P25100)
- Construct: The entire coding region of α1A (1719 bp); expressed in transfected cells
- Sequence (P25100 whole entry): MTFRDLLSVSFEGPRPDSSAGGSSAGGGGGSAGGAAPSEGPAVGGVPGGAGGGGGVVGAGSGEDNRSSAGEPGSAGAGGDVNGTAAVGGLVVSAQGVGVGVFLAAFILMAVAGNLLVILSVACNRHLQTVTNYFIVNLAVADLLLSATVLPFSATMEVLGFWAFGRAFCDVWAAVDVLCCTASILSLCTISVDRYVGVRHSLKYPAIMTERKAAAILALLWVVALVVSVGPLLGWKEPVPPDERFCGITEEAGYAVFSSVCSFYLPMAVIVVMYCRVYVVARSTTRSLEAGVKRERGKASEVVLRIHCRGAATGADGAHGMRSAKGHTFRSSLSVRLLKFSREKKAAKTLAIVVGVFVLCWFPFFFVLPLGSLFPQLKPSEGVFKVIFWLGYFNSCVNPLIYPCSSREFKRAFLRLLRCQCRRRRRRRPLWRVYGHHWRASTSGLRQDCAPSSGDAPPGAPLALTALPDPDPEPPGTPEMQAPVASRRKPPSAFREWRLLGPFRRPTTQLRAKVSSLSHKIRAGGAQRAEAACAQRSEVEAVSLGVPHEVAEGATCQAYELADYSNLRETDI
- protocol summary: Radioligand binding, [3H]prazosin, cloned human α1A adrenergic receptor
- condition description: [3H]prazosin, cloned human receptor in LM(tk-) cell membranes; SEM and n in lines below; read-out: pKi alpha-1 1a (converted)
Counter-ions that a name gives are not always drawn.
attribute measured: Ki (nM)
Numbers only, in nM.

Solved cases below.
- compound: "COc1cc2c(cc1OC)CN(CCCNC(=O)C1=C(C)NC(C)=C(C(N)=O)C1c1ccc([N+](=O)[O-])cc1)CC2 (centres unmarked) [Example 58, hydrochloride]"
  attribute measured: "Ki"
  measured number: 3020
- compound: "COC(=O)C1=C(C)NC(c2ccoc2)=C(C(=O)NCCCN2CCC(c3ccccc3)CC2)C1c1ccc([N+](=O)[O-])cc1 (centres unmarked) [Example 65, hydrochloride hydrate]"
  attribute measured: "Ki"
  measured number: 129
- compound: "COC(=O)C1=C(C)NC(C)=C(C(=O)OCCCN(C)C)C1c1ccc([N+](=O)[O-])cc1.Cl (centres unmarked) [Example 44, hydrochloride]"
  attribute measured: "Ki"
  measured number: 5890
- compound: "COC(=O)C1=C(C)NC(C)=C(C(=O)NCCCN2CCc3ccccc3C2)C1c1ccc([N+](=O)[O-])cc1 (centres unmarked) [Example 59, hydrochloride hydrate]"
  attribute measured: "Ki"
  measured number: 513

Provide the reported Ki (system: α1A Human Adrenergic Receptor (Homo sapiens, UniProt P25100)) for CC1=C(C(N)=O)C(c2cccc([N+](=O)[O-])c2)C(C(=O)NCCCN2CCC(c3ccccc3)CC2)=C(C)N1 (centres unmarked)
339
